Method notes: NCI Yeast Anticancer Drug Screen. Data for the mlh1 rad18 strain (AID 175)
Test settings: S. cerevisiae mlh1 rad18 strain growth inhibition; at 50.0 µM; stronger effect = higher value
About 79,000 compounds went through this panel and 15% of them were active in at least one assay; those are over-represented in the sample as a whole.
Recorded growth inhibition for the following compounds
Number in %, nothing else.

Compound | Value units | growth inhibition
COc1c(Br)cc(Br)cc1Br | % | 6.05
O=C1C(=Cc2ccc(Cl)c(Cl)c2)C([O-])=C([P+](c2ccccc2)(c2ccccc2)c2ccccc2)C([O-])=C1[P+](c1ccccc1)(c1ccccc1)c1ccccc1 | % | -19.6
CCNC(=O)NS(=O)(=O)c1ccc(Sc2ccc(Cl)cc2)nc1 | % | -0.4
CCCCCCCCCSCCS | % | -22.2
Cc1ccccc1NCC(C)O (stereo unspecified) | % | -32

The compound listed as C(=C\c1ccccc1)/C=N/N=C/C=C/c1ccccc1 has a reported growth inhibition of -4

The compound listed as Cc1ccccc1OCC1COCN(Cc2ccccc2)CO1 (stereo unspecified) has a reported growth inhibition of 32.9

The compound listed as CCOC(=O)CCC(C(=O)OCC)c1nc2ccccc2[nH]c1=O (stereo unspecified) has a reported growth inhibition of 14.2

The compound listed as CCN(CC)CCOC(=O)Cc1cccc2c(=O)cc(-c3ccc(OC)cc3)oc12 has a reported growth inhibition of -45.4

The compound listed as C=C1CC(C)(C)CN(Cc2ccc([N+](=O)[O-])cc2)C(C(=O)OC)=C1C(=O)OC has a reported growth inhibition of 13.2

The compound listed as CCCCCCCCCCCO has a reported growth inhibition of -18.8
